Molecular target: Factor X, P00742
Sequence (P00742 whole entry, looked up): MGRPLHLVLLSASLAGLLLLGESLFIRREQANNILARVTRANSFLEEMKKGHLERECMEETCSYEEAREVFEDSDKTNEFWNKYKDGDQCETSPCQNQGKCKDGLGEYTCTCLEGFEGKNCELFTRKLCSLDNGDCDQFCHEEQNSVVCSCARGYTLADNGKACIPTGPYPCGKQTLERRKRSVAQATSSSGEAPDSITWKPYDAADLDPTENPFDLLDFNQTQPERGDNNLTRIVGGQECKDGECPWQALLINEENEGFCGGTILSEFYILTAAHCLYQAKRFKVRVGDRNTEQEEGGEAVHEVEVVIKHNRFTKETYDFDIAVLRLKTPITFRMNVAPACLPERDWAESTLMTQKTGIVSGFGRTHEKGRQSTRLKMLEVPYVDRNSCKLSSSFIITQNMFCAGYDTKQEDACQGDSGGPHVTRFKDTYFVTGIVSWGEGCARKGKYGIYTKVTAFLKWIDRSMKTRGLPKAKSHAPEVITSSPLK
Each entry below carries its recorded kcat/KM.
Dear colleague, please return just the value in M⁻¹ s⁻¹, with no unit written.

Field request: kcat/KM | item: FIXa R318Y/R338E/N346Y/R403E/E410N (protein) chain 1: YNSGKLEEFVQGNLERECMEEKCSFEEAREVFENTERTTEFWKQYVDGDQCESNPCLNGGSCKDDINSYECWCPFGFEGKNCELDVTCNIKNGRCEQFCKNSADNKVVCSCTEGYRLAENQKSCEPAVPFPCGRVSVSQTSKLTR chain 2: VVGGEDAKPGQFPWQVVLNGKVDAFCGGSIVNEKWIVTAAHCVETGVKITVVAGEHNIEETEHTEQKRNVIRIIPHHNYNAAINKYNHDIALLELDEPLVLNSYVTPICIADKEYTNIFLKFGSGYVSGWGRVFHKGYSALVLQYLRVPLVDRATCLESTKFTIYYNMFCAGFHEGGRDSCQGDSGGPHVTEVEGTSFLTGIISWGEECAMKGKYGIYTKVSEYVNWIKNKTKLT 1.2e+08

In the following, a different protein is considered.
// returns reported kcat/KM for input FIXa-R318Y/R338E/E410N (mature FIX numbering) (protein) chain 1: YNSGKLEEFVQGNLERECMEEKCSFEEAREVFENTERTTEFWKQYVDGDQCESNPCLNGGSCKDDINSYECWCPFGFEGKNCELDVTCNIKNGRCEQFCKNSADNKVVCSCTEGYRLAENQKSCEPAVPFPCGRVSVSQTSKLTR chain 2: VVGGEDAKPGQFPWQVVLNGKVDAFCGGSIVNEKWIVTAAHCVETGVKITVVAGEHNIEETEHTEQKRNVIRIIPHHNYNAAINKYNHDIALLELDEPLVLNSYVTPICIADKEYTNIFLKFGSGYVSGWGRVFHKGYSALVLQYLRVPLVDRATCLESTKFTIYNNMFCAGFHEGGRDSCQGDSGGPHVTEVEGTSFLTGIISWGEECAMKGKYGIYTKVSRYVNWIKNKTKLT 3.4e+08
